Molecular target: BCRP (Homo sapiens)
Assay: in vitro
Conditions: Caco-2, Recovery rate (%) AP-BL
PARAMETER: recovery at 2 h (%)
Give bare numbers, in %.

Per the records, this compound ( CC(C)NCC(O)COc1cccc2ccccc12 (stereo not shown) ) has recovery at 2 h equal to 62.2

----------
Target: BCRP (Homo sapiens, UniProt Q9UNQ0)
Assay: in vitro
Settings: Caco-2, Papp (A-B) (10^−6, cm/s)
The threshold is 0.1 ×10⁻⁶ cm/s. Values of Papp A→B at 2 h beneath it are tagged fulfilled; values meeting or exceeding it are tagged not fulfilled.

{"COMPOUND": "CC[C@@]1(O)C(=O)OCc2c1cc1n(c2=O)Cc2c-1nc1cc(F)c(C)c3c1c2[C@@H](NC(=O)[C@H]1C[C@H](O)C1)CC3", "LABEL CLASS": "fulfilled"}
{"COMPOUND": "CC(C)c1nc(N(C)S(C)(=O)=O)nc(-c2ccc(F)cc2)c1/C=C/[C@@H](O)C[C@@H](O)CC(=O)O [Rosuvastatin, rosuvastatin, reference compound]", "LABEL CLASS": "not fulfilled"}
{"COMPOUND": "CC(C)NCC(O)COc1cccc2ccccc12 (centres unmarked)", "LABEL CLASS": "not fulfilled"}
{"COMPOUND": "CC[C@@]1(O)C(=O)OCc2c1cc1n(c2=O)Cc2c-1nc1cc(F)c(C)c3c1c2[C@@H](N1CCC(O)C1=O)CC3 (some centres unmarked)", "LABEL CLASS": "not fulfilled"}

Moving on to another compound below.
Request: Lab note: Papp A→B at 2 h threshold 0.1 ×10⁻⁶ cm/s. Does this compound come in strictly under it? "CC[C@@]1(O)C(=O)OCc2c1cc1n(c2=O)Cc2c-1nc1cc(F)c(C)c3c1c2[C@@H](NC(=O)[C@H]1C[C@@H](O)C1)CC3"
Response: not fulfilled

----------
What recovery at 2 h was measured for each of the following?
Molecular target: BCRP (Homo sapiens, UniProt Q9UNQ0)
Assay: Study on transporter substrates in Caco-2 cell model
Details: human, Caco-2, Recovery rate (%) AP-BL, Caco-2; KO143 −
Answers are plain numbers, in %.

Illustrative cases are given below, each with its answer.
{"COMPOUND": "CC[C@@]1(O)C(=O)OCc2c1cc1n(c2=O)Cc2c-1nc1cc(F)c(C)c3c1c2[C@@H](N1CCC(O)C1=O)CC3 (stereo partly shown) [P-I-1]", "EXPERIMENTAL VALUE": 80.5}
{"COMPOUND": "CC[C@@]1(O)C(=O)OCc2c1cc1n(c2=O)Cc2c-1nc1cc(F)c(C)c3c1c2[C@@H](NC(=O)[C@H]1C[C@@H](O)C1)CC3 [P-II-3]", "EXPERIMENTAL VALUE": 80.9}
{"COMPOUND": "CC(C)c1nc(N(C)S(C)(=O)=O)nc(-c2ccc(F)cc2)c1/C=C/[C@@H](O)C[C@@H](O)CC(=O)O [Rosuvastatin, rosuvastatin, reference compound]", "EXPERIMENTAL VALUE": 98.5}

Could you now consider this next compound?
What the record says about CC[C@@]1(O)C(=O)OCc2c1cc1n(c2=O)Cc2c-1nc1cc(F)c(C)c3c1c2[C@@H](NC(=O)[C@H]1C[C@H](O)C1)CC3 [P-II-4] : recovery at 2 h is 63.8

----------
Target: BCRP (Homo sapiens, UniProt Q9UNQ0)
Sequence (Q9UNQ0 1-655): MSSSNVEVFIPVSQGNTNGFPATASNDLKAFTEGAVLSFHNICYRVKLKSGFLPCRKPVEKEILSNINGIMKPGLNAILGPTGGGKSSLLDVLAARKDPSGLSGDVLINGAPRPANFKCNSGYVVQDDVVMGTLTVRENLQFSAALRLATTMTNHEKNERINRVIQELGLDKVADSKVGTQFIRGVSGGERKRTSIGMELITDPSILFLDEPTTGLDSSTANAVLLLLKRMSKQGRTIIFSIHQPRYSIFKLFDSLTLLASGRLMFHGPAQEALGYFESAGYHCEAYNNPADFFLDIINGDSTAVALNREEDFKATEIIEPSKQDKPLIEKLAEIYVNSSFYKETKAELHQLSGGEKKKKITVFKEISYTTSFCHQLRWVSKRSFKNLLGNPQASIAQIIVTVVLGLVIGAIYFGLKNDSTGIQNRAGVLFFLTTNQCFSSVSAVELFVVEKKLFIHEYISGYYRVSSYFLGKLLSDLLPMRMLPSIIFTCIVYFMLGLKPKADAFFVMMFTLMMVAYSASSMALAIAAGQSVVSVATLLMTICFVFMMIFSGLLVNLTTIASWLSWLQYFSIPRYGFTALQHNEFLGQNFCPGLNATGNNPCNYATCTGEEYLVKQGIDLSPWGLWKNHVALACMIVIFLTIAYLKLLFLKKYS
Assay: in vitro
Settings: Caco-2, Papp (B-A) (10^−6, cm/s)
PARAMETER: Papp B→A at 2 h (×10⁻⁶ cm/s)
Give bare numbers, in ×10⁻⁶ cm/s.

{"COMPOUND": "CC[C@@]1(O)C(=O)OCc2c1cc1n(c2=O)Cc2c-1nc1cc(F)c(C)c3c1c2[C@@H](NC(=O)[C@H]1C[C@H](O)C1)CC3", "UNIT ABBREV": "×10⁻⁶ cm/s", "EXPERIMENTAL VALUE": 1.72}
{"COMPOUND": "CC(C)NCC(O)COc1cccc2ccccc12 (centres unmarked)", "UNIT ABBREV": "×10⁻⁶ cm/s", "EXPERIMENTAL VALUE": 18.9}
{"COMPOUND": "CC(C)c1nc(N(C)S(C)(=O)=O)nc(-c2ccc(F)cc2)c1/C=C/[C@@H](O)C[C@@H](O)CC(=O)O [Rosuvastatin, rosuvastatin, reference compound]", "UNIT ABBREV": "×10⁻⁶ cm/s", "EXPERIMENTAL VALUE": 9.52}
{"COMPOUND": "CC[C@@]1(O)C(=O)OCc2c1cc1n(c2=O)Cc2c-1nc1cc(F)c(C)c3c1c2[C@@H](NC(=O)[C@H]1C[C@@H](O)C1)CC3", "UNIT ABBREV": "×10⁻⁶ cm/s", "EXPERIMENTAL VALUE": 4.83}

Lab note: CC[C@@]1(O)C(=O)OCc2c1cc1n(c2=O)Cc2c-1nc1cc(F)c(C)c3c1c2[C@@H](N1CCC(O)C1=O)CC3 (some centres unmarked) gave Papp B→A at 2 h of 4.06

----------
Target: BCRP (Homo sapiens)
Details: Caco-2
PARAMETER: Papp (A-B) (10^−6, cm/s)

For each of the compounds below, state Papp (A-B) (10^−6, cm/s).
1. CC[C@@]1(O)C(=O)OCc2c1cc1n(c2=O)Cc2c-1nc1cc(F)c(C)c3c1c2[C@@H](NC(=O)[C@H]1C[C@@H](O)C1)CC3
2. CC(C)c1nc(N(C)S(C)(=O)=O)nc(-c2ccc(F)cc2)c1/C=C/[C@@H](O)C[C@@H](O)CC(=O)O [Rosuvastatin, rosuvastatin, reference compound]
3. CC[C@@]1(O)C(=O)OCc2c1cc1n(c2=O)Cc2c-1nc1cc(F)c(C)c3c1c2[C@@H](N1CCC(O)C1=O)CC3 (stereo partly drawn)
4. CC[C@@]1(O)C(=O)OCc2c1cc1n(c2=O)Cc2c-1nc1cc(F)c(C)c3c1c2[C@@H](NC(=O)C1CCC(O)CC1)CC3 (single isomer, unassigned) [P-II-1]
5. CC[C@@]1(O)C(=O)OCc2c1cc1n(c2=O)Cc2c-1nc1cc(F)c(C)c3c1c2[C@@H](NC(=O)[C@H]1C[C@H](O)C1)CC3
6. CC[C@@]1(O)C(=O)OCc2c1cc1n(c2=O)Cc2c-1nc1cc(F)c(C)c3c1c2[C@@H](NC(=O)C1CCC(O)CC1)CC3 (single isomer, unassigned) [P-II-2]

Response:
1. 0.20 10^−6, cm/s
2. 0.45 10^−6, cm/s
3. 0.21 10^−6, cm/s
4. 0.20 10^−6, cm/s
5. 0.06 10^−6, cm/s
6. 0.07 10^−6, cm/s

----------
Test system: JIMT-1 cells
Assay: Inhibition of in vitro proliferation of tumor cells by compounds (CTG, 6 days)
Type: cell-based
Conditions: Homo sapiens, JIMT-1, 144 h, read-out: JIMT-1 IC50 (nM)
Kindly supply the reported IC50 values for the records listed here.
Give bare numbers, in nM.

# example entries with known answers
{"COMPOUND": "CC[C@@]1(O)C(=O)OCc2c1cc1n(c2=O)Cc2c-1nc1cc(F)c(C)c3c1c2[C@@H](NC(=O)c1ccc(O)cn1)CC3", "IC50 / nM": 20.8}
{"COMPOUND": "CC[C@@]1(O)C(=O)OCc2c1cc1n(c2=O)Cc2c-1nc1cc(F)c(C)c3c1c2[C@@H](NC(=O)CC(=O)CO)CC3", "IC50 / nM": 12.5}
{"COMPOUND": "CC[C@@]1(O)C(=O)OCc2c1cc1n(c2=O)Cc2c-1nc1cc(F)c(C)c3c1c2[C@@H](NC(=O)C1CCCC(O)C1)CC3 (stereo partly shown)", "IC50 / nM": 3.2}

// sample "CC[C@@]1(O)C(=O)OCc2c1cc1n(c2=O)Cc2c-1nc1cc(F)c(C)c3c1c2[C@@H](NC(=O)CCS)CC3" , its IC50 was 108

Where do these numbers come from? They come from patent US11952384B2.
